# protein stability index values compiled below
B1: JUNB (parent)
chain: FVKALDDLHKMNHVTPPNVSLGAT

- Variants of: B1
- Protocol text: protein stability index of a GFP-peptide fusion (GPS, HEK-293T) (PSI 1-6); higher = more stable;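 further: lentivirally expressed fusions sorted by FACS into six bins by GFP to DsRed ratio, PSI derived from sequencing read proportions per bin multiplied by bin number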
- Experimental parameters: c terminus: a fixed tail appended

Variant notation: H13E
protein stability index: 3.33

Variant notation: K10C
protein stability index: 1.64

Variant notation: V14Q
protein stability index: 2.26

Variant notation: G22T
protein stability index: 1.82

Variant notation: H13I
protein stability index: 2.22

Variant notation: P17D
protein stability index: 1.97

Variant notation: P17F
protein stability index: 2.56

Variant notation: G22H
protein stability index: 1.54

Variant notation: P16I
protein stability index: 1.58

Variant notation: A4T
protein stability index: 2.34

Variant notation: H9L
protein stability index: 1.44

Variant notation: N12I
protein stability index: 1.67

Variant notation: G22L
protein stability index: 2.5

Variant notation: K10R
protein stability index: 2.77

Variant notation: A4K
protein stability index: 1.58

Variant notation: T24E
protein stability index: 2.52

Variant notation: V2F
protein stability index: 2.03

Variant notation: P16F
protein stability index: 2.55

Variant notation: V19E
protein stability index: 1.67

Variant notation: H13C
protein stability index: 1.67

Variant notation: T24L
protein stability index: 1.66

Variant notation: K10G
protein stability index: 1.5

Variant notation: M11T
protein stability index: 2.06

Variant notation: N18K
protein stability index: 1.75

Variant notation: S20T
protein stability index: 2.09

Variant notation: L8A
protein stability index: 1.51

Variant notation: M11N
protein stability index: 2.01

Variant notation: A4M
protein stability index: 1.58

Variant notation: T15D
protein stability index: 1.9

Variant notation: V14E
protein stability index: 1.93

Variant notation: V14N
protein stability index: 1.89

Variant notation: V14K
protein stability index: 1.53

Variant notation: P16A
protein stability index: 1.94

Variant notation: P16T
protein stability index: 2.34

Variant notation: H9K
protein stability index: 1.9

Variant notation: K10P
protein stability index: 2.61

Variant notation: K3S
protein stability index: 2.72

Variant notation: L5R
protein stability index: 1.62

Variant notation: P16W
protein stability index: 1.92

Variant notation: K3I
protein stability index: 1.98

Variant notation: D7T
protein stability index: 2.16

Variant notation: P17H
protein stability index: 1.89

Variant notation: T24N
protein stability index: 1.6

Variant notation: H9T
protein stability index: 2.15

Variant notation: S20V
protein stability index: 1.77

Variant notation: T15I
protein stability index: 1.59
